This collection of values is drawn from the supplement of paper PMC5579334.

- Test system: YST-1
- PROCEDURE_DETAILS: drug sensitivity score (DSS, CellTiter-Glo viability, 72 h) (DSS (dimensionless)); higher = more sensitive; extreme values may be limits of the assay
Overview of recorded drug sensitivity score for various molecules
The reply should be a number, written without any unit.

Look over these answered cases.
// query Give me measured drug sensitivity score, please, for this molecule: Cc1c2oc3c(C)ccc(C(=O)N[C@@H]4C(=O)N[C@H](C(C)C)C(=O)N5CCC[C@H]5C(=O)N(C)CC(=O)N(C)[C@@H](C(C)C)C(=O)O[C@@H]4C)c3nc-2c(C(=O)N[C@@H]2C(=O)N[C@H](C(C)C)C(=O)N3CCC[C@H]3C(=O)N(C)CC(=O)N(C)[C@@H](C(C)C)C(=O)O[C@@H]2C)c(N)c1=O [Dactinomycin] (max concentration tested 1000 nM)
// result 37.4

// query Respond only with drug sensitivity score recorded for C#Cc1cccc(Nc2ncnc3cc(OCCOC)c(OCCOC)cc23)c1 [Erlotinib] (max concentration tested 10000 nM)
// result 5.25

// query Supply drug sensitivity score value. Item: COC(=O)N[C@@H](C)CNc1nccc(-c2cn(C(C)C)nc2-c2cc(Cl)cc(NS(C)(=O)=O)c2F)n1 [Encorafenib] (max concentration tested 1000 nM)
// result 0

Further cases:
// query Check the records and state drug sensitivity score for Cc1[nH]c(/C=C2\C(=O)Nc3ccccc32)c(C)c1CCC(=O)O [Orantinib] (max concentration tested 10000 nM)
// result 0.72

// query // fetch drug sensitivity score given entry CNC(=O)c1cc(Oc2ccc(NC(=O)Nc3cc(C(C)(C)C)nn3-c3ccc4ncccc4c3)c(F)c2)ccn1 [Rebastinib] (max concentration tested 1000 nM)
// result 0

// query Quote drug sensitivity score reported for O=C(Nc1cccc(Cl)c1)Nc1ncc(CCNc2ncnc3ccsc23)s1 [SNS-314] (max concentration tested 1000 nM) please.
// result 8.57
